Measured EC50, listed per entry for reference.
Target: T1, human CXCR5 (human, UniProt P32302 1-372)
T1 construct: also called hCXCR5; C-X-C chemokine receptor type 5
T1 sequence: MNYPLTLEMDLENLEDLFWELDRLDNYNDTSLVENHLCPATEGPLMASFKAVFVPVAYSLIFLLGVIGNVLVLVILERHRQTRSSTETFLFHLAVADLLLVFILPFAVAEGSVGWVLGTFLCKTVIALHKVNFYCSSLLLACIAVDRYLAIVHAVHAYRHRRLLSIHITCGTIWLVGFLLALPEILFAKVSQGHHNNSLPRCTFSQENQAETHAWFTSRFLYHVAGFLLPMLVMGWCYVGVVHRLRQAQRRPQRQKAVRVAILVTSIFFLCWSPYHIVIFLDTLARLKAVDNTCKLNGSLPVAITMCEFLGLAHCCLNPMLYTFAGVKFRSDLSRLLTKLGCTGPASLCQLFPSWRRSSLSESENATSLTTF
Assay: flow cytometry, human tonsil Tfh cells
test.readout: EC50 (pM)

binder	test.readout	numeric.readout
Humanized 11G2 154/157 (antibody, human IgG1, V domains shown, also called h11G2 VH (XC157)/VL (XC154)) VH: EVQLVESGGGLVQPGGSLRLSCATSGFTFTDFYMSWVRQAPGKGLEWVGFIRNKANGYTTEYSASVKGRFTISRDNAKSSLYLQMNSLRAEDTAVYYCVRVYGSTLHYWGQGTLVTVSS VL: DIQMTQSPSSLSASVGDRVTITCRASESVEYHGTSLMHWYQQKPGKAPKLLIYAASNVESGVPSRFSGSGSGTDFTLTISSLQPEDFATYYCQQSRKVPWTFGQGTKVEIK	EC50	7.24
Humanized 11G2 151/152 (antibody, human IgG1, V domains shown, also called h11G2 VH (XC152)/VL (XC151)) VH: EVQLVESGGGLVKPGGSLRLSCAASGFTFTDFYMSWVRQAPGKGLEWLGFIRNKANGYTTEYSAPVKGRFTISRDDSKNTLYLQMNSLKTEDTAVYYCVRVYGSTLHYWGQGTLVTVSS VL: DIQMTQSPSSLSASVGDRVTITCRASESVEYHGTSLMHWYQQKPGKAPKLLIYAASNVESGVPSRFSGSGSGTDFTLTISSLQPEDFATYYCQQSRKVPWTFGQGTKVEIK	EC50	3.33
Humanized 11G2 154/155 (antibody, human IgG1, kappa, V domains shown, fucosylated human IgG1/kappa; also called h11G2 VL XC154/VH XC155) VH: EVQLVESGGGLVQPGGSLRLSCAASGFTFTDFYMSWVRQAPGKGLEWVGFIRNKANGYTTEYSASVKGRFTISRDNAKNSLYLQMNSLRAEDTAVYYCARVYGSTLHYWGQGTLVTVSS VL: DIQMTQSPSSLSASVGDRVTITCRASESVEYHGTSLMHWYQQKPGKAPKLLIYAASNVESGVPSRFSGSGSGTDFTLTISSLQPEDFATYYCQQSRKVPWTFGQGTKVEIKR	EC50	8.25
Humanized 11G2 153/155 (antibody, human IgG1, V domains shown, also called h11G2 VH (XC155)/VL (XC153)) VH: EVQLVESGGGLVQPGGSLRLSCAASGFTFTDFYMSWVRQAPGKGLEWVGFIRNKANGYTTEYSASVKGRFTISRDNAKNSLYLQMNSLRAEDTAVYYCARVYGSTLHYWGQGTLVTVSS VL: DIQMTQSPSSLSASVGDRVTITCRASESVEYHGTSLMHWYQQKPGKAPKLLIYAASNVESGVPSRFSGSGSGTDFTLTISSLQPEDFATYFCQQSRKVPWTFGQGTKVEIK	EC50	4.82
Chimeric 11G2 (antibody, human IgG1, kappa, V domains shown, mouse V regions on human IgG1/kappa; also called 11G2 (chimeric)) VH: EVKLVESGGGLVQPGGSLRLSCATSGFTFTDFYMSWVRQPPGRALEWLGFIRNKANGYTTEYSASVKGRFTISRDNSQSILYLQMNTLRAGDSATYYCVRVYGSTLHYWGQGTILTVSS VL: DVVVTQSPDSLAVSLGQRATISCRASESVEYHGTSLMHWYQQKPGQPPKLLIYAASNVESGVPARFSGSGSGTDFSLNIHPVEEGDIAMYFCQQSRKVPWTFGGGTKLEIKR	EC50	8.46

Each recorded value in this set is attributed to patent US20210101970A1.
